- testProtocol: HepG2 cell viability effects, profiling panel, calcein-AM fluorescence, 48 h, basal (AID 1164); note: test concentration not given here
- conditionSet: higher = more signal
We begin with a simple list: items and their reported z-score.
When you answer, write just the number.

-- ask Return z-score (reported value) for this compound: `COCCOC(=O)N1C(=O)[C@@]2(c3cc(C#CCC(C(=O)OC)C(=O)OC)ccc31)[C@H](C(=O)N1CCc3cc(OC)c(OC)cc3C1)[C@H]1C(=O)O[C@H](c3ccccc3)[C@H](c3ccccc3)N1[C@@H]2c1ccccc1OCCO`
-- reply -0.717

-- ask Using the record for C=CCC(OC(C)=O)[C@@H]1[C@@H](N(Cc2cccc3ccccc23)C(=O)c2ccc(C)cc2)c2cc(OCCCO)ccc2N1C(=O)Cc1ccc2ccccc2c1 (some centres undefined) , state its measured z-score.
-- reply 1.55

-- ask Fill in z-score for record `COc1cc2c(cc1OC)CN(C(=O)[C@@H]1[C@H]3C(=O)O[C@H](c4ccccc4)[C@H](c4ccccc4)N3[C@H](c3ccc(O)cc3)[C@@]13C(=O)Nc1ccc(C#CC4=CCCCC4)cc13)CC2`
-- reply 0.618

-- ask Consider the compound `CCCCC(=C=CC[C@H](O)c1ccccc1OCCO)CCO` and give its recorded z-score.
-- reply 0.285

----------
- testProtocol: small-molecule microarray binders of probe aNog, primary screen, biochemical, biotinylated probe, 635/667 nm fluorescence (AID 1115);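 note: probe is biotinylated aNog protein used at 0.15 µg/mL for 1 h at 4 C; z-score combines 667 nm fluorescence of each spot with its signal to noise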
- conditionSet: higher = more signal
metricName: composite z-score
Form: value (number only, do not type unit).

Some entries whose results are on file:
smiles	composite z-score
COC(=O)[C@@]1(Cc2ccc(F)cc2)[C@H]2c3cc(C(=O)N(C)C)n(CCF)c3C[C@H]2CN1C(=O)c1ccccc1	0.787
O=C(NCCN1CCOCC1)[C@@H]1c2ccccc2C(=O)N(CC23CC4CC(CC(C4)C2)C3)[C@H]1c1ccc(CO)cc1	-0.112
[N-]=[N+]=NCc1ccccc1[C@H]1OC(c2ccc(OCCCO)cc2)=N[C@@]1(CCS(=O)(=O)c1ccccc1)C(=O)O	-0.246
COc1ccc([Si](C)(C)[C@H]2[C@H](CC(=O)N(CCO)Cc3ccccc3)O[C@@]3(C(=O)N(Cc4cccc(N5CCCCC5=O)c4)c4ccccc43)[C@@H]2C)cc1	-0.0863
COCCOC(=O)N1C(=O)[C@@]2(c3cc(C#CC4=CCCCC4)ccc31)[C@H](c1ccc(O)cc1)N1[C@H](c3ccccc3)[C@H](c3ccccc3)OC(=O)[C@H]1[C@@H]2C(=O)N1CCc2cc(OC)c(OC)cc2C1	0.453

-- ask Item `C=CCOC(=O)[C@H]1[C@@H]2C(=O)O[C@@H](c3ccccc3)[C@@H](c3ccccc3)N2[C@@H](c2ccc(OCCOC(=O)[C@H]3C[C@H]4C(=O)NCC(=O)N4[C@H]3c3ccc(O)cc3)cc2)[C@]12C(=O)Nc1ccccc12` : provide composite z-score
-- reply -0.217

----------
- testProtocol: S. cerevisiae RM11-1a growth modifiers, primary screen, strain RM11-1a, OD600, basal, 24 h (AID 1177);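 note: cultures grown under basal conditions with no added stressor; test concentration not given here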
- conditionSet: OD600, 24 h, higher = more signal, called active from +8 up or from −8 down
metricName: z-score
Field format: numeric only.

In the examples that follow, each entry is paired with its recorded z-score.
molecule	z-score
O=C1C2C=CC(C(O)c3ccccn3)N(Nc3ccc([N+](=O)[O-])cc3)C2C(=O)N1c1ccccc1 (stereo not given)	-0.841
COC(=O)[C@H](Cc1ccccc1)N1CC(C)(OC)O[C@@H](Cc2ccccc2)[C@H]1/C=C/C1CC1 (stereo not given in full)	0.815
CN1C(=O)C2C=CC(C(O)c3cccs3)N(N(c3ccccc3)c3ccccc3)C2C1=O (stereo not given)	0.567

-- ask Determine from records and report z-score for `OCCCc1cc[n+](Cc2cc3c(cc2Br)OCO3)cc1`
-- reply -0.126

-- ask Return value of z-score for input CC(C)c1ccc(NN2C(C(O)C(C)c3ccccc3)C=CC3C(=O)N(c4ccccc4)C(=O)C32)cc1 (stereo not given) , no commentary.
-- reply 0.208

-- ask Answer with the recorded z-score for the molecule listed here: `CCCCCCc1nc(Cc2cc(OC)c(OC)c(OC)c2)c(C)c2c1[Si](C(C)C)(C(C)C)OC2`
-- reply -0.599

-- ask Retrieve z-score measured for `C=CCNC(=O)[C@@H]1[C@H]2C(=O)O[C@H](c3ccccc3)[C@H](c3ccccc3)N2[C@H](c2ccc(O)cc2)[C@@]12C(=O)Nc1ccc(C#CC3=CCCCC3)cc12` and print it.
-- reply 1.28

-- ask Report z-score for `C=CCNC(=O)[C@H]1[C@@H]2C(=O)O[C@@H](c3ccccc3)[C@@H](c3ccccc3)N2[C@@H](c2ccc(OCCO)cc2)[C@]12C(=O)N(C(=O)OCCOC)c1ccc(C#CCC(C(=O)OC)C(=O)OC)cc12`
-- reply 2.76

-- ask Give the reported z-score for this molecule. `Cc1ccc(S[C@]2(C(=O)NC3CC3)CC(=O)N(C3Cc4ccccc4C3)[C@@H]2c2ccc(CO)cc2I)cc1`
-- reply 0.283

-- ask Return z-score for the following molecule: `C[C@@]1([C@@H](NS(=O)(=O)c2cccc3cccnc23)c2ccc(-c3ccccc3)cc2)C[C@H]1C1CCCCC1`
-- reply 0.368
